# Assay comment: subacute toxicity, 7-day intragastric administration: blood biochemical and hematological indicators
# Format: in vivo, rat
# Particulars: 60 mg/kg intragastric once a day for 7 days, male Sprague-Dawley rats
Readout kind: ALT

compound="CCCCC1=CCC[C@@]2(C)CC[C@@H]3C[C@]12OC3(C)C [BAF, 4-butyl-α-agarofuran, reference compound]" endpoint_value="189.0 U/L"
compound="[2H]C1([2H])C=C(C([2H])([2H])C([2H])([2H])C([2H])([2H])C([2H])([2H])[2H])[C@@]23C[C@@H](CC[C@]2(C)C1)C(C)(C)O3 [I-7, d11-BAF]" endpoint_value="48.7 U/L"
compound="[2H]C1([2H])C=C(CCCC)[C@@]23C[C@@H](CC[C@]2(C)C1)C(C)(C)O3 [I-1, d2-BAF]" endpoint_value="116.1 U/L"
compound="[2H]C([2H])([2H])C([2H])([2H])C([2H])([2H])C([2H])([2H])C1=CCC[C@@]2(C)CC[C@@H]3C[C@]12OC3(C)C [I-5, d9-BAF]" endpoint_value="56.6 U/L"
compound="[2H]C1=C(CCCC)[C@@]23C[C@@H](CC[C@]2(C)CC1([2H])[2H])C(C)(C)O3 [I-2, d3-BAF]" endpoint_value="74.0 U/L"
